Target: T1, Recombinant cynomolgus IL-18 (cynomolgus monkey, UniProt Q14116 37-193 (human entry))
T1 construct: also called cm IL-18; Cyno IL-18
T1 chain: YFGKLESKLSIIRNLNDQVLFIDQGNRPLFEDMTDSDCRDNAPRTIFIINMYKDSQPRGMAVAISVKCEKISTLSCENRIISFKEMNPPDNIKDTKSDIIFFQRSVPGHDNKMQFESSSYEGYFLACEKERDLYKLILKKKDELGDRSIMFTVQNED
Experiment: solution equilibrium titration (SET), ECL detection; value in brackets = cynomolgus IL-18; bracketed value
MEASUREMENT_TYPE: Kd (nM)
Note: unit nM is implicit; provide only the numeric part.

Problem: For MOR9464_N30K (antibody, human IgG1, lambda, L234A L235A, V domains shown, also called MOR09464_N30K) VH: EVQLVQSGAEVKKPGSSVKVSCKASGGTFKSYAISWVRQAPGQGLEWMGNIIPMTGQTYYAQKFQGRVTITADESTSTAYMELSSLRSEDTAVYYCARAAYHPLVFDNWGQGTLVTVSS VL: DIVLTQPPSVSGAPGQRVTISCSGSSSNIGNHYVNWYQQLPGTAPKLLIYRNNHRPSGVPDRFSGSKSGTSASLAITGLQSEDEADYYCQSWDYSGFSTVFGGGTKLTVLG , what is its reported Kd?
Solution: 0.02

Where do the numbers come from? From patent US20140112915A1.
